- target: HER-2 (Homo sapiens, UniProt P04626)
- Construct: His6 with thrombin site (N); purchased Proqinase (Freiburg, Germany)
- Sequence (P04626 679-1255): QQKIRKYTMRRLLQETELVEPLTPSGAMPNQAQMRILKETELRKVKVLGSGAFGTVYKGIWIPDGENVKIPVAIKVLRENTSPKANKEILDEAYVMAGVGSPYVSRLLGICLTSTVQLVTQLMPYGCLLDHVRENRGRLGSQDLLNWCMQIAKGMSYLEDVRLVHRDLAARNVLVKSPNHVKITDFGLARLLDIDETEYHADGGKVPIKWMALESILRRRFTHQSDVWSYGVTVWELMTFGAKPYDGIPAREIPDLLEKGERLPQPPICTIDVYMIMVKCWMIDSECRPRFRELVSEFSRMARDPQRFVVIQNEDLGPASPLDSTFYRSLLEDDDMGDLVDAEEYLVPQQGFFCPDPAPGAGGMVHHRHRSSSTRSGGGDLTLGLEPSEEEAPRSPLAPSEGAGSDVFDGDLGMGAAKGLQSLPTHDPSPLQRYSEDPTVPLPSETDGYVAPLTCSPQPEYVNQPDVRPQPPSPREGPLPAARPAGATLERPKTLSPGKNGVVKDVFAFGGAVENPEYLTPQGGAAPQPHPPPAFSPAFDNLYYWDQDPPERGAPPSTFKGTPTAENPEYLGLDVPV
- procedure_text: HER-2 Kinase Assay
- Format: biochemical
- assay_context: value in parentheses
quantity: IC50

Recorded IC50, per entry:
{"compound": "O=C(Nc1ccc(CN2CCC(F)CC2)cc1)c1sc2ncnc3c2c1NC(=O)N3c1ccc(Oc2ccccc2)cc1 [Cpd 250]", "IC50": "26 nM"}
{"compound": "CCOC(=O)c1sc2ncnc3c2c1NC(=O)N3c1cc(Br)ccc1C [Cpd 103]", "IC50": "> 100000 nM"}
{"compound": "O=C(Nc1ccc(CN2CCOCC2)cc1)c1sc2ncnc3c2c1NC(=O)N3c1ccc(N2CCOCC2)cc1 [Cpd 123]", "IC50": "> 100000 nM"}

# input for lookup
What measured IC50 goes with CN1CCN(Cc2ccc(NC(=O)c3sc4ncnc5c4c3NC(=O)N5c3ccc(Oc4ccccc4)cc3)cc2)CC1 [Cpd 98] ?
88 nM

---

- Tested on: N87 cells
- procedure_text: In Vivo Models - Inhibition of Tumor Growth, N87
- assay_context: Mus musculus, po, 720 h, 100 mg/kg, oral daily for 30 days, athymic mice; read-out: percent inhibition N87
Threshold check on inhibition in vivo at 100 mg/kg: at or above 70% gives Criterion met, strictly below gives Criterion not met.

// below: answered molecules
{"cpd_smiles": "O=C(Nc1ccc(CN2CCC(F)(F)CC2)cc1)c1sc2ncnc3c2c1NC(=O)N3c1ccc(Oc2ccccc2)cc1", "classification": "Criterion not met"}
{"cpd_smiles": "NC1CCN(Cc2ccc(NC(=O)c3sc4ncnc5c4c3NC(=O)N5c3ccc(Oc4ccccc4)cc3)cc2)CC1", "classification": "Criterion not met"}
{"cpd_smiles": "COC1CCN(Cc2ccc(NC(=O)c3sc4ncnc5c4c3NC(=O)N5c3ccc(Oc4ccccc4)cc3)cc2)CC1", "classification": "Criterion met"}
{"cpd_smiles": "O=C(Nc1ccc(CN2CCC(O)CC2)cc1)c1sc2ncnc3c2c1NC(=O)N3c1ccc(Oc2ccccc2)cc1", "classification": "Criterion not met"}
{"cpd_smiles": "Cc1cc(NC(=O)c2sc3ncnc4c3c2NC(=O)N4c2ccc(Oc3ccccc3)cc2)ccc1CN1CCOCC1", "classification": "Criterion not met"}

Here's the next entry for you.
Is inhibition in vivo at 100 mg/kg at least 70%? Consider `O=C(Nc1ccc(CN2CCOCC2)cc1)c1sc2ncnc3c2c1NC(=O)N3c1ccc(OCc2ccco2)c(Cl)c1`
Criterion not met

---

List of inhibition at 2 µM values.
- target: EGFR (Homo sapiens, UniProt P00533)
- Construct: The intracellular portion of EGFR started at nucleotide 2189 (corresponding to amino acid 667) and ended at the termination codon; made in house; host or cells: Sf9 insect cells (baculovirus)
- Sequence (P00533 669-1210 limits assumed): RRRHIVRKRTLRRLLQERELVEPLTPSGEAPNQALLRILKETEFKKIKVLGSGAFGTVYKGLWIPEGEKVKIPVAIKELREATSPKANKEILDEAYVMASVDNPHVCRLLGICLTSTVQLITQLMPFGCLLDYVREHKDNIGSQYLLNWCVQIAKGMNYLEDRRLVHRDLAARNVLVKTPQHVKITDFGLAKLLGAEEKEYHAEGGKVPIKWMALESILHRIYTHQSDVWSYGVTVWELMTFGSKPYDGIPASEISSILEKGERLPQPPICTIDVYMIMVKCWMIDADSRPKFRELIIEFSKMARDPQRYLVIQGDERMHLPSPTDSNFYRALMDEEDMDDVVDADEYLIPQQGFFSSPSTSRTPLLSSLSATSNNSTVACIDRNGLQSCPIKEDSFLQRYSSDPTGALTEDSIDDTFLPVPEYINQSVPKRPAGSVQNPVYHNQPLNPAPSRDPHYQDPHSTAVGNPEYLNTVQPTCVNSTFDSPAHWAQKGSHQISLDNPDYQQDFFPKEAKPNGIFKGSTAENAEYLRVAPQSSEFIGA
- procedure_text: EGFR Kinase Assay
- Assay type: biochemical
- assay_context: test concentration of 2 μM; compounds without an IC50; read-out: EGFR inhibition in percent
The number alone won't do; follow it with the unit.

Recorded inhibition at 2 µM, per entry:
{"compound": "CCOC(=O)c1sc2ncnc3c2c1NC(=O)N3c1ccc(Oc2ccc(F)cc2)cc1", "inhibition at 2 µM": "18%"}
{"compound": "CN1CCC(NC(=O)c2sc3ncnc4c3c2NC(=O)N4c2ccc3nc(Cc4cccc(F)c4)[nH]c3c2)CC1", "inhibition at 2 µM": "31%"}

What measured inhibition at 2 µM goes with `O=C(Nc1ccc(CN2CCOCC2)cc1)c1sc2ncnc3c2c1NC(=O)N3c1c(Cl)cccc1Cl` ?
41%

What measured inhibition at 2 µM goes with `CCOC(=O)c1sc2ncnc3c2c1NC(=O)N3c1cc(Br)ccc1C` ?
21%

What measured inhibition at 2 µM goes with `COc1cc(N2C(=O)Nc3c(C(=O)Nc4ccc(CN5CCN(C)CC5)cc4)sc4ncnc2c34)c(Cl)cc1Cl` ?
29%

What measured inhibition at 2 µM goes with `COc1ccc(Cl)c(N2C(=O)Nc3c(C(=O)Nc4ccc(OCCN5CCOCC5)c(OC)c4)sc4ncnc2c34)c1` ?
30%

What measured inhibition at 2 µM goes with `COc1ccc(Cl)c(N2C(=O)Nc3c(C(=O)Nc4ccc(CN5CCOCC5)cc4)sc4ncnc2c34)c1` ?
53%

What measured inhibition at 2 µM goes with CCOC(=O)c1sc2ncnc3c2c1NC(=O)N3C(C)c1ccc(Br)cc1 (centres unmarked) ?
0.7%

All figures here come from patent US7579356B2.
